# study.system: Muscarinic acetylcholine receptor
# experimental.details: In vitro ability to displace [3H]quinuclidinyl benzilate (QNB) from rat cerebral cortex muscarinic acetylcholine receptor
# Type: tissue-based
Measured IC50 of individual entries
Value expressed in nM; do not type the unit.

Check out these entries, answers already filled in.
[[record]]
compound = "Clc1nnn([C@H]2CN3CC[C@H]2C3)n1"
study_system = "Muscarinic acetylcholine receptor"
units = "nM"
reading = 630

[[record]]
compound = "Brc1nnn([C@H]2CN3CC[C@H]2C3)n1"
study_system = "Muscarinic acetylcholine receptor"
units = "nM"
reading = 822

[[record]]
compound = "Ic1nnn(C2CN3CCC2CC3)n1 (configuration not stated)"
study_system = "Muscarinic acetylcholine receptor"
units = "nM"
reading = 216


Value sought: IC50, system Muscarinic acetylcholine receptor, item Clc1nnn(C2CN3CCC2CC3)n1 (configuration not stated) . Result: 578

Value sought: IC50, system Muscarinic acetylcholine receptor, item Clc1nnn(C23CCCN(CC2)C3)n1 (configuration not stated) . Result: 332

Value sought: IC50, system Muscarinic acetylcholine receptor, item Ic1nnn([C@H]2CN3CC[C@H]2C3)n1 . Result: 372

Value sought: IC50, system Muscarinic acetylcholine receptor, item Brc1nnn(C2CN3CCC2CC3)n1 (configuration not stated) . Result: 488

From: ChEMBL document CHEMBL1125462
